Quick reference for half-life among some compounds
# protocol: Chemical stability (H2O, pH 7.4)
# Format: physicochemical
# particulars: water; H2O; value given in h; read-out: Chemical stability t1/2 H2O (converted)
// unit must come after the numeric part

Sample records with half-life:
CC(C)C(N)C(=O)Oc1ccc(/C=C/C(=O)/C=C(O)/C=C/c2ccc(OC(=O)C(N)C(C)C)cc2)cc1 (stereo not drawn) [Compound 33]
18.9 h
COc1cc(/C=C/C(=O)/C=C(O)/C=C/c2ccc(OC(=O)C(N)C(C)C)c(OC)c2)ccc1OC(=O)C(N)C(C)C (stereo not drawn) [Compound 35]
18.2 h

As a next step, examine the compound that follows.
Prompt: Assign half-life to the following record: COc1cc(N(C)C)ccc1/C=C/C(=O)/C=C(O)/C=C/c1ccc(N(C)C)cc1OC [Compound 3]
Response: 19.9 h

----------
# protocol: Metabolic stability in human liver microsomes
# Type: in vitro ADME
# particulars: value given in h, read-out: Half life, t1/2 HLM
valueKind: half-life

NCCCCC(N)C(=O)Oc1ccc(/C=C/C(=O)C2CCC/C(=C\c3ccc(OC(=O)C(N)CCCCN)cc3)C2=O)cc1 (centres unmarked)
> 1 h

Prompt: Recall and state the measured half-life for CC(C)C(N)C(=O)Oc1ccc(/C=C/C(=O)C2CCC/C(=C\c3ccc(OC(=O)C(N)C(C)C)cc3)C2=O)cc1 (centres unmarked) .
Response: > 1 h

----------
# protocol: Average permeability
# Assay type: in vitro ADME
# particulars: not told
valueKind: Papp (×10⁻⁶ cm/s)
Report as a plain number; the unit ×10⁻⁶ cm/s is understood.

Example cases with answers are listed next.
COc1cc(N(C)C)ccc1/C=C/C(O)=C1\CCC/C(=C\c2ccc(N(C)C)cc2OC)C1=O
4.8
CC(C)C(N)C(=O)Oc1ccc(/C=C/C(=O)/C=C(O)/C=C/c2ccc(OC(=O)C(N)C(C)C)cc2)cc1 (stereo not shown)
316
O=C(/C=C(O)/C=C/c1ccc(O)cc1)/C=C/c1ccc(O)cc1 [Compound 1, reference compound]
305
COc1ccc(F)cc1/C=C/C(=O)/C=C(O)/C=C/c1cc(F)ccc1OC
129
COc1cc(/C=C/C(=O)/C=C(O)/C=C/c2ccc(OC(=O)C(N)C(C)C)c(OC)c2)ccc1OC(=O)C(N)C(C)C (stereo not shown)
572

Prompt: Please report Papp for the following molecule: COc1cc(/C=C/C(=O)/C=C(O)/C=C/c2ccc(OC(=O)C(N)CCCCN)c(OC)c2)ccc1OC(=O)C(N)CCCCN (stereo not shown)
Response: 718

Prompt: Supply reported Papp belonging to this molecule: COc1cc(/C=C/C(=O)/C=C(O)/C=C/c2ccc(O)c(OC)c2)ccc1O [Compound 2, reference compound]
Response: 844

----------
# protocol: Average solubility
# Format: physicochemical
valueKind: solubility (µg/mL)
Give the value in µg/mL but do not write µg/mL after it.

Prompt: Output measured solubility for this item: COc1cc(/C=C/C(=O)/C=C(O)/C=C/c2ccc(O)c(OC)c2)ccc1O [Compound 2, reference compound]
Response: 9.5

Prompt: Report solubility, nothing else, for this compound: `CN(C)c1ccc(/C=C/C(=O)/C=C(O)/C=C/c2ccc(N(C)C)cc2)cc1`
Response: 0.23

Prompt: Indicate its recorded solubility; the compound in question is `COc1cc(N(C)C)ccc1/C=C/C(=O)/C=C(O)/C=C/c1ccc(N(C)C)cc1OC`
Response: 0.73

Prompt: Report measured solubility; entry is COc1cc(/C=C/C(=O)/C=C(O)/C=C/c2ccc(OC(=O)C(N)CCCCN)c(OC)c2)ccc1OC(=O)C(N)CCCCN (stereo not shown)
Response: 30.6
